Experiment: amyloid nucleation score (Sup35N fusion, yeast selection) (log enrichment); library NNK1; higher = more nucleation; inactive = no reads after selection;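 note: zero at mode of non-aggregating sequences after 7 days selection at 30°C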
readout-type: amyloid nucleation score
Answers are plain numbers.

Past entries and their recorded results:
>  <substance>
VWIPYCLNFQSCNNHKLSLA

>  <amyloid nucleation score>
-1.13

$$$$
>  <substance>
DSYSLSN

>  <amyloid nucleation score>
-0.179

$$$$
>  <substance>
MKVYHSTQEVLWGQGGLLTR

>  <amyloid nucleation score>
-0.116

$$$$
>  <substance>
GELTIYCSVVPYVVSR

>  <amyloid nucleation score>
0.415

$$$$

// each listed substance needs a value for amyloid nucleation score
1. AGDTGFTHTYSCWIKQWFVF
2. SVNAYTSRTGRWMVMNSLVS
3. LVCVGTGSGMFEHRAIMMLV

Response:
1. 0.705
2. -0.186
3. -0.174
